Residues, ends and D or L forms follow the SMILES beside them.
Yac cells data, read-out Doubling [time] of Yac cells
observable: Doubling [time] of Yac cells

NCC(=O)NCC(=O)O [Glycylglycine] (H-Gly-Gly-OH): 66.9
OC[C@H]1O[C@@](CO)(O[C@H]2O[C@H](CO)[C@@H](O)[C@H](O)[C@H]2O)[C@@H](O)[C@@H]1O: 41.0
O=S(=O)(O)CC(O)CN1CCOCC1 (stereo not drawn): 178.4

---

tested on: Yac cells
// Doubling [time] of Yac cells lookup, one value per entry
observable: Doubling [time] of Yac cells

O=S(=O)(O)CCCNC(CO)(CO)CO: 32.7
O=S(=O)(O)CC(O)CNC(CO)(CO)CO (stereo not drawn): 63.6
O=S(=O)(O)CC(O)CN1CCN(CCO)CC1 (stereo not drawn): 23.4
O=S(=O)(O)CCCN1CCN(CCO)CC1: 32.2
NCCCS(=O)(=O)O: 99.6
NC(=O)CNCCS(=O)(=O)O: 1038.4
O=C[C@H](O)[C@@H](O)[C@H](O)[C@H](O)CO: 34.5
O=S(=O)(O)CCCNC1CCCCC1: 45.8
N[C@H]1C(O)O[C@H](CO)[C@@H](O)[C@@H]1O (stereo partly drawn): 288.4
O=S(=O)(O)CCNC1CCCCC1: 51.5
O=C(O)CN(CCO)CCO [BICINE, N,N-bis(2-hydroxyethyl)glycine]: 57.7
O=S(=O)(O)CC(O)CN(CCO)CCO (stereo not drawn): 36.7
